Target: UniProt Q8I5C6
Assay: IC50 for competition of protein binding to Kinobeads;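 also: native unpurified kinases from lysate captured on beads bearing immobilized kinase inhibitors, with bead-bound kinases quantified by mass spectrometry across compound doses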
Details: assay detail: Kinobeads competition in P. falciparum blood-stage lysate
pIC50: −log10 of the molar value.
reportedProperty: pIC50

Reported pIC50 (UniProt Q8I5C6) for entry O=c1[nH]c2ccc(Cl)cc2c(NC2CN3CCC2CC3)c1-c1nc2ccccc2[nH]1 (stereo unspecified) [CHIR-124] is < 4.70

* * *

Target: UniProt Q8I2R0
Assay: IC50 for competition of protein binding to Kinobeads
Settings: assay detail: Kinobeads competition in P. falciparum blood-stage lysate
pIC50: −log10 of the molar value.
reportedProperty: pIC50

pIC50 for O=c1[nH]c2ccc(Cl)cc2c(NC2CN3CCC2CC3)c1-c1nc2ccccc2[nH]1 (stereo unspecified) is < 4.70

* * *

Biological target: UniProt C0H4U4
Experiment: IC50 for competition of protein binding to Kinobeads
Details: assay detail: Kinobeads competition in P. falciparum blood-stage lysate
pIC50: −log10 of the molar value.
reportedProperty: pIC50

pIC50 for O=c1[nH]c2ccc(Cl)cc2c(NC2CN3CCC2CC3)c1-c1nc2ccccc2[nH]1 (stereo unspecified) is < 4.70

* * *

Target: UniProt Q8I2P8
Assay: IC50 for competition of protein binding to Kinobeads
Conditions: assay detail: Kinobeads competition in P. falciparum blood-stage lysate
pIC50: −log10 of the molar value.
reportedProperty: pIC50

pIC50 for O=c1[nH]c2ccc(Cl)cc2c(NC2CN3CCC2CC3)c1-c1nc2ccccc2[nH]1 (stereo unspecified) [CHIR-124] is < 4.70

* * *

Target: UniProt Q8IDN9
Assay: IC50 for competition of protein binding to Kinobeads
Conditions: assay detail: Kinobeads competition in P. falciparum blood-stage lysate
pIC50: −log10 of the molar value.
reportedProperty: pIC50

Reported pIC50 (UniProt Q8IDN9) for entry O=c1[nH]c2ccc(Cl)cc2c(NC2CN3CCC2CC3)c1-c1nc2ccccc2[nH]1 (stereo unspecified) is < 4.70

* * *

Target: UniProt P62344
Sequence (P62344 whole entry, looked up): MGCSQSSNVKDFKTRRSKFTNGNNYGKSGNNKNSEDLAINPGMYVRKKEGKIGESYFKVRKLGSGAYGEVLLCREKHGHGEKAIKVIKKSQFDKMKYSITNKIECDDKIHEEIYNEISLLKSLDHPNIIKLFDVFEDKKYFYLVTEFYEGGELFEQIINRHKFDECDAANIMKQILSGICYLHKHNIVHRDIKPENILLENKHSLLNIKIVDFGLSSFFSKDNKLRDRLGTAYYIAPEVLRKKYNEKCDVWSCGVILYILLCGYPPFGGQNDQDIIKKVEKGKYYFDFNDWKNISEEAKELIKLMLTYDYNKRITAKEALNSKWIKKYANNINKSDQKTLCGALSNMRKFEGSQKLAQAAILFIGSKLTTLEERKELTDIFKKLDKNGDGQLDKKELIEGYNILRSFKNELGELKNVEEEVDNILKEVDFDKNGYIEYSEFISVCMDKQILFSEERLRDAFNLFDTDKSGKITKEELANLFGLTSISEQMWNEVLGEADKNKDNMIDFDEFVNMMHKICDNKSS
Assay: IC50 for competition of protein binding to Kinobeads
Details: assay detail: Kinobeads competition in P. falciparum blood-stage lysate
reportedProperty: IC50

IC50 for O=c1[nH]c2ccc(Cl)cc2c(NC2CN3CCC2CC3)c1-c1nc2ccccc2[nH]1 (stereo unspecified) is < 82.3 nM

* * *

Target: UniProt Q8IBZ9
Sequence (Q8IBZ9 whole entry): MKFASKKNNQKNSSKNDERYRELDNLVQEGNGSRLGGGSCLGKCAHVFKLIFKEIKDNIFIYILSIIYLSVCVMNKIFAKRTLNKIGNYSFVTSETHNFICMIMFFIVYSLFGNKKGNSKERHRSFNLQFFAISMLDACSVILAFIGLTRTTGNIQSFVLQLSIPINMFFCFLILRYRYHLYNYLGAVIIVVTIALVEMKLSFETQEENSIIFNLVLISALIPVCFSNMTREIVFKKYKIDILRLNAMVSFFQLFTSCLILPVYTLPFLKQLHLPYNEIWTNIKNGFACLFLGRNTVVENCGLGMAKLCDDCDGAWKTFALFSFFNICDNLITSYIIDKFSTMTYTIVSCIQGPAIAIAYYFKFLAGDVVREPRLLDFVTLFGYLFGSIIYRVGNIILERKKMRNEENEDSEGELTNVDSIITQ
Experiment: IC50 for competition of protein binding to Kinobeads
Settings: assay detail: Kinobeads competition in P. falciparum blood-stage lysate
reportedProperty: IC50

IC50 for O=c1[nH]c2ccc(Cl)cc2c(NC2CN3CCC2CC3)c1-c1nc2ccccc2[nH]1 (stereo unspecified) is > 20 µM

* * *

Target: UniProt Q7KQL9
Sequence (Q7KQL9 whole entry): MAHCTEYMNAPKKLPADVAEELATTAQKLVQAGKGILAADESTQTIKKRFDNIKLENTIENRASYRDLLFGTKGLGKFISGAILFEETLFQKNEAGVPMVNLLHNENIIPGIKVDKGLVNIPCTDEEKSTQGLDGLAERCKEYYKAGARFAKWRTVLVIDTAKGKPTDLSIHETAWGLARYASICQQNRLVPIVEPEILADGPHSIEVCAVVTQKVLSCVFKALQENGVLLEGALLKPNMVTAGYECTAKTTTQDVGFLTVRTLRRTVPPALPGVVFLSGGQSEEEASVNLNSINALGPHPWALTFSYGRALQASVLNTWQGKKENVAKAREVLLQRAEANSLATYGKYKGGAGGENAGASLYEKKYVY
Experiment: IC50 for competition of protein binding to Kinobeads
Conditions: assay detail: Kinobeads competition in P. falciparum blood-stage lysate
reportedProperty: IC50

IC50 for O=c1[nH]c2ccc(Cl)cc2c(NC2CN3CCC2CC3)c1-c1nc2ccccc2[nH]1 (stereo unspecified) [CHIR-124] is > 20 µM

* * *

Biological target: UniProt Q8IAV6
Assay: IC50 for competition of protein binding to Kinobeads
Settings: assay detail: Kinobeads competition in P. falciparum blood-stage lysate
pIC50: −log10 of the molar value.
reportedProperty: pIC50

Reported pIC50 (UniProt Q8IAV6) for entry O=c1[nH]c2ccc(Cl)cc2c(NC2CN3CCC2CC3)c1-c1nc2ccccc2[nH]1 (stereo unspecified) [CHIR-124] is < 4.70
